# MEASUREMENT PROTOCOL: cytotoxicity assay (MTT)
# Format: cell-based
# MEASUREMENT SETUP: human, Huh-7/Lunet cells (cured HCV replicon cells), Lunet/HuH7 cells, 2 days of incubation, mean of duplicates
Reported CC50 at 2 days values follow for various compounds

Consider the worked cases shown below.
Please supply the value of reported CC50 at 2 days for the item CCCn1c(=O)c(-c2c(Cl)cccc2Cl)cc2c(N)nc(Nc3ccccc3)nc21
≥ 25 µM

Please supply the value of reported CC50 at 2 days for the item Cn1c(=O)c(-c2c(Cl)cccc2Cl)cc2c(N)nc(Nc3ccc(Br)cc3)nc21
< 10 µM

Please supply the value of reported CC50 at 2 days for the item CCCOCCNc1nc(Nc2ccccc2)nc2c1cc(-c1c(Cl)cccc1Cl)c(=O)n2C
≥ 25 µM

Please supply the value of reported CC50 at 2 days for the item CCCOCCNc1nc(Nc2ccccc2)nc2c1CC(c1c(Cl)cccc1Cl)C(=O)N2 (stereo not drawn)
≥ 25 µM

Please supply the value of reported CC50 at 2 days for the item Cn1c(=O)c(-c2c(Cl)cccc2Cl)cc2cnc(Nc3ccccc3)nc21
< 10 µM

Further cases:
Please supply the value of reported CC50 at 2 days for the item CCCOCCNc1nc(N)nc2[nH]c(=O)c(-c3ccc(F)cc3)cc12
≥ 25 µM

Please supply the value of reported CC50 at 2 days for the item Cn1c(=O)c(-c2c(F)cccc2F)cc2c(N)nc(Nc3ccccc3)nc21
10 to 25 µM

Please supply the value of reported CC50 at 2 days for the item Cn1c(=O)c(-c2ccccc2)cc2c(N)nc(Nc3ccccc3)nc21
10 to 25 µM

Please supply the value of reported CC50 at 2 days for the item Cn1c(=O)c(-c2c(Cl)cccc2Cl)cc2c(N)nc(Nc3ccccc3)nc21
< 10 µM

Please supply the value of reported CC50 at 2 days for the item COc1ccc(Nc2nc3[nH]c(=O)c(-c4ccc(F)cc4)cc3c(=O)[nH]2)cc1
≥ 25 µM

Please supply the value of reported CC50 at 2 days for the item Nc1nc(Nc2ccccc2)nc2[nH]c(=O)c(-c3ccccc3)cc12
10 to 25 µM

Please supply the value of reported CC50 at 2 days for the item COc1nc(N)nc2c1CC(c1c(Cl)cccc1Cl)C(=O)N2C (stereo not drawn)
≥ 25 µM

Please supply the value of reported CC50 at 2 days for the item CN1CCN(c2ccc(Nc3nc(N)c4cc(-c5c(Cl)cccc5Cl)c(=O)n(C)c4n3)cc2)CC1
< 10 µM

Please supply the value of reported CC50 at 2 days for the item O=C1Nc2nc(Nc3ccccc3)[nH]c(=O)c2CC1c1cccc2ccccc12 (stereo not drawn)
10 to 25 µM

Please supply the value of reported CC50 at 2 days for the item CCn1c(=O)c(-c2c(Cl)cccc2Cl)cc2c(N)nc(Nc3ccccc3)nc21
≥ 25 µM

Please supply the value of reported CC50 at 2 days for the item CCCCn1c(=O)c(-c2c(Cl)cccc2Cl)cc2c(N)nc(Nc3ccccc3)nc21
≥ 25 µM

Please supply the value of reported CC50 at 2 days for the item COCCOc1nc(N)nc2c1CC(c1c(Cl)cccc1Cl)C(=O)N2 (stereo not drawn)
≥ 25 µM

Please supply the value of reported CC50 at 2 days for the item CCCOCCOc1nc(N)nc2c1cc(-c1c(Cl)cccc1Cl)c(=O)n2C
≥ 25 µM
